All values here come from paper PMC8243516.

# systemName: recombinant mouse LPLA2 (PLA2G15) (Mus musculus, UniProt Q8VEB4)
# Construct: purchased Proteos Inc. (Kalamazoo, MI)
# Sequence (Q8VEB4 34-412): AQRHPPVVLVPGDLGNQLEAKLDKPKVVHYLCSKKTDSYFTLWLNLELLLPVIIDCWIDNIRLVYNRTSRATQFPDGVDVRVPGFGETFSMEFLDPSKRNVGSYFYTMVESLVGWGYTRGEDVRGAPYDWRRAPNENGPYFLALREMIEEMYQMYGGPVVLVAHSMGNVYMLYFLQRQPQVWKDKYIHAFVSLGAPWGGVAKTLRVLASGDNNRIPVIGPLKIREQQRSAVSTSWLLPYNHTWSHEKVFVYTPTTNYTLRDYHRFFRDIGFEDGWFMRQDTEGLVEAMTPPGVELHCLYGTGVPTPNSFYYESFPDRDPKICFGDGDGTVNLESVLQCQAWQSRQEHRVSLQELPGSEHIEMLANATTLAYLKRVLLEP
# protocolText: Transacylase activity of LPLA2 (1-O-acyl-N-acetylsphingosine synthase, cell-free liposome assay)
# Assay type: biochemical
# runParameters: 1-O-acyl N-acetylsphingosine synthase activity, pH 4.5, DOPC/sulfatide liposomes; read-out: LPLA2 IC50
endpoint: pIC50
Answers are plain numbers, as −log10 of the molar value.

Record CCOc1ccc(NC(C)=O)cc1 [Phenacetin, N-(4-ethoxyphenyl) acetamide] . Reported pIC50: 2.67

The following compounds each have a reported value; give each one's pIC50.
1. CN(C)CCCN1c2ccccc2CCc2ccccc21
2. NC[C@H]1O[C@H](O[C@H]2[C@H](O)[C@@H](O[C@H]3O[C@H](CO)[C@@H](O)[C@H](N)[C@H]3O)[C@H](N)C[C@@H]2N)[C@H](N)C[C@@H]1O

[A]
4.56
4.48

The following compounds each have a reported value; give each one's pIC50.
1. CN(C)CCC=C1c2ccccc2C=Cc2ccccc21
2. CC12CC3CC(C)(C1)CC(N)(C3)C2.Cl [Memantine]
3. CN(C)CCCN1c2ccccc2Sc2ccccc21
4. CCOc1cc(CC(=O)NC(CC(C)C)c2ccccc2N2CCCCC2)ccc1C(=O)O (stereo not shown) [Repaglinide]

[A]
1. 5.20
2. 4.45
3. 4.41
4. 4.06
